# tgt: GPR139 (Homo sapiens)
# Sequence (Q6DWJ6 whole entry): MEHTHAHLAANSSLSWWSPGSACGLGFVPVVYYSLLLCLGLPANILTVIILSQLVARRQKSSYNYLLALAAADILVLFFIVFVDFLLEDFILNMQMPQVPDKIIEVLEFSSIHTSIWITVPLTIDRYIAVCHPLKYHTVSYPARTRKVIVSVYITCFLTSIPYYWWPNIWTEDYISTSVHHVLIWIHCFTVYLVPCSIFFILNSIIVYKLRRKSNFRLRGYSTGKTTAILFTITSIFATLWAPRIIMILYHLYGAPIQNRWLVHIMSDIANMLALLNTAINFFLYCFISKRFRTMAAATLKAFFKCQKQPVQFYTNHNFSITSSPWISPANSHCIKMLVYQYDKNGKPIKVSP
# assay-explanation: GPR139 Agonist titration / agonist counterscreen assay (calcium detection, HEK-GPR139 cells)
# Format: cell-based
# Set-up: expressed in transfected cells; host or cells: HEK Aequorin cells, Maxcyte transient transfection
# run-conditions: GPR139 Agonist Activity; values printed in E-notation without unit; read-out: EC50
pEC50: −log10 of the molar value.
reported-endpoint: pEC50

| compound | pEC50 |
| --- | --- |
| Cc1cccc(CCNC(=O)c2c[nH]c3cc(-c4cn[nH]c4)ccc23)c1 | 7.37 |

A. COc1ccccc1CC1(C)NC(=O)N(CC(=O)NC(C)c2cccc(Cl)c2)C1=O (centres unmarked)
B. O=C(Cn1ncc2c1-c1ccccc1OC2)Nc1ccccn1
C. COc1cc(C(C)=O)ccc1OCC(=O)NC(C)CCc1ccccc1 (centres unmarked)
D. Cc1cc(C(=O)NNC(=O)CNC(=O)Cc2cccc3ccccc23)c(C)o1
Rank by pEC50 (largest to smallest). Thanks in advance for listing the labels in the requested order.
D, A, C, B
(D: 8.00, A: 7.76, C: 7.42, B: 6.58)
